For each entry below, report its glycan array binding signal (z-score) value.
Target: Gal4S6S(b1-4)GlcNAc
Assay: glycan array binding signal (z-score within array); higher = stronger binding
Settings: glycan notation: IUPAC condensed, linker removed
Only a selection was taken, and the strongest signals are over-represented in it overall.

Annotate the binder S100A12 (Homo sapiens), P80511 (protein) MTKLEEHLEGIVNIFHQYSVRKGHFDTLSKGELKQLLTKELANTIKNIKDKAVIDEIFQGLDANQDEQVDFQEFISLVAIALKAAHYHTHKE with its measured glycan array binding signal (z-score). 2.91

Annotate the binder Clrb (Mus musculus) (protein) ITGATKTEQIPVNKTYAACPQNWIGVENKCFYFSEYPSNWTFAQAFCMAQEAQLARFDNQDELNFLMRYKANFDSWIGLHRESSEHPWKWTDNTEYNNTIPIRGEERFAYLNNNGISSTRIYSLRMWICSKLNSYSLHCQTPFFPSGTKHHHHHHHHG with its measured glycan array binding signal (z-score). -0.101

Annotate the binder MAL-II (Maackia amurensis), P93248 (protein) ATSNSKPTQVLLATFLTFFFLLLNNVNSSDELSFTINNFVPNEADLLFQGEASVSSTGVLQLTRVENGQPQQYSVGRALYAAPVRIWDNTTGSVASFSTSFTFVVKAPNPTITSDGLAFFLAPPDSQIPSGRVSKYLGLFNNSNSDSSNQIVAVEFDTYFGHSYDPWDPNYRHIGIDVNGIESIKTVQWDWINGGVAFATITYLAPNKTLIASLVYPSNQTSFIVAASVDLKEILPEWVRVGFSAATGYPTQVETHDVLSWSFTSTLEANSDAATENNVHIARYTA with its measured glycan array binding signal (z-score). -0.156

Annotate the binder TbCVNHOb (Tuber borchii) (protein) MSFYASSEDVRTIEEGGRTWLVGRARRADGSWQDIKLDLDNIIGNRDGHLTWGEQNFTQSASDIRFNFEGGSNVPVLRAKLRNAAGGEQESDLNLGERLTNNNGDLVFN with its measured glycan array binding signal (z-score). -0.061

Annotate the binder LecRKVI.2 (protein) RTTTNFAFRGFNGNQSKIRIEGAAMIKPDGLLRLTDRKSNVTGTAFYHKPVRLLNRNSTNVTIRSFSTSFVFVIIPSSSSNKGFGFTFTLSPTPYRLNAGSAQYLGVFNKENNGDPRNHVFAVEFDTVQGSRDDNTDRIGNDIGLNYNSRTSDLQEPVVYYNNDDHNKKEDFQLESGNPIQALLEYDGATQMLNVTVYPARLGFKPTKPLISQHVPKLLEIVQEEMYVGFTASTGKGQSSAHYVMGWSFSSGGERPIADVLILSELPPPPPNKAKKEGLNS with its measured glycan array binding signal (z-score). -0.352

Annotate the binder MUB70 (Lactobacillus reuteri) (protein) CVHVQYIDGETDQMLRQDDLDGYTDETIPYSTAEGIKKFEGDGYELFKDNFPAGEKFDNDDTNDQFYTVIF with its measured glycan array binding signal (z-score). 1.99

Annotate the binder PhypaEULS3 (Physcomitrella patens) (protein) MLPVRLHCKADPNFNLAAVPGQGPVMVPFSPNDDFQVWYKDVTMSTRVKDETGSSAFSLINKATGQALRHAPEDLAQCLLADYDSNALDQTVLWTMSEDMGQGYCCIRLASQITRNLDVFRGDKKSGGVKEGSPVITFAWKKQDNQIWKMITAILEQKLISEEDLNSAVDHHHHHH with its measured glycan array binding signal (z-score). -0.245

Annotate the binder AT1G73650(15) (Arabidopsis thaliana), F4HRY1 (protein) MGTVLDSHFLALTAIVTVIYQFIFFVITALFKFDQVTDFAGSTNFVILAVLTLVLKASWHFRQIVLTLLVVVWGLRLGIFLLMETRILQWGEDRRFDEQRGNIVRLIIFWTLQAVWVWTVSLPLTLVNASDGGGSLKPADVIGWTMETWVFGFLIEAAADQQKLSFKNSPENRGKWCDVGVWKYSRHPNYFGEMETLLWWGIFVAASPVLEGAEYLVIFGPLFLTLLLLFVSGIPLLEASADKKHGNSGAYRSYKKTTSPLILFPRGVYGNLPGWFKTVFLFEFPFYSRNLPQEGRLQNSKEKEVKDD with its measured glycan array binding signal (z-score). -0.444

Annotate the binder Arath Fbox LD (Arabidopsis thaliana) (protein) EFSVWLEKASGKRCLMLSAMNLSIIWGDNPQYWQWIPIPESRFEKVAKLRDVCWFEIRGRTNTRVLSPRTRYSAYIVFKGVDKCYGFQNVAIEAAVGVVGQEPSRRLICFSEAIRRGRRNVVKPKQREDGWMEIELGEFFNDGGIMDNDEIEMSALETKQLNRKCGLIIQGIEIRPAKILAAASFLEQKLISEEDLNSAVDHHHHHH with its measured glycan array binding signal (z-score). -0.39

Annotate the binder C-Reactive Protein (Homo sapiens), P02741 (protein) MEKLLCFLVLTSLSHAFGQTDMSRKAFVFPKESDTSYVSLKAPLTKPLKAFTVCLHFYTELSSTRGYSIFSYATKRQDNEILIFWSKDIGYSFTVGGSEILFEVPEVTVAPVHICTSWESASGIVEFWVDGKPRVRKSLKKGYTVGAEASIILGQEQDSFGGNFEGSQSLVGDIGNVNMWDFVLSPDEINTIYLGGPFSPNVLNWRALKYEVQGEVFTKPQLWP with its measured glycan array binding signal (z-score). 2.24

Annotate the binder HMGB1 (Homo sapiens), P09429 (protein) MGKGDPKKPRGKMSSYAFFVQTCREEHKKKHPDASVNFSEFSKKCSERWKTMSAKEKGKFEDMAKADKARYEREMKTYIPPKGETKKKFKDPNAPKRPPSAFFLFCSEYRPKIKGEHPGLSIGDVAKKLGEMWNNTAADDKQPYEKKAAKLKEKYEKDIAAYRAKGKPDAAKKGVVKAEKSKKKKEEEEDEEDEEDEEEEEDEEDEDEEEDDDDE with its measured glycan array binding signal (z-score). 3.25

Annotate the binder Dectin-1 CTLD (Mus musculus), Q6QLQ4 (protein) MKYHSHIENLDEDGYTQLDFSTQDIHKRPRGSEKGSRAPSSPWRPIAVGLGILCFVVVVVAAVLGALAFWRHNSGRNPEEKDNFLSRNKENHKPTESSLDEKVAPSKASQTTGGFSQSCLPNWIMHGKSCYLFSFSGNSWYGSKRHCSQLGAHLLKIDNSKEFEFIESQTSSHRINAFWIGLSRNQSEGPWFWEDGSAFFPNSFQVRNTVPQESLLHNCVWIHGSEVYNQICNTSSYSICEKEL with its measured glycan array binding signal (z-score). -0.021

Annotate the binder HFR-3 (Triticum aestivum) (protein) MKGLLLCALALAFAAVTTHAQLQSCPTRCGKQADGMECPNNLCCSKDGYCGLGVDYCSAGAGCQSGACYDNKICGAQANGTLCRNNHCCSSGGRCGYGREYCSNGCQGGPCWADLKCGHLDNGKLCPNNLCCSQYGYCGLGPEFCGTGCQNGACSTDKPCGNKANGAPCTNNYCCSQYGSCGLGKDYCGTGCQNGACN with its measured glycan array binding signal (z-score). 0.828
